Quick list: composite z-score per entry.
# Tested on: Human papillomavirus type 1a protein E7 (residues 44-93)
# TEST: HPV1a E7 fragment binders on microarrays, primary screen, biochemical, small-molecule microarray, residues 44-93, 635 nm fluorescence (AID 1108);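 also: E7 fragment applied at 1 µg/mL in TBST for 1 h at 4 C; score combines spot fluorescence with its signal to noise ratio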
# COND: small-molecule microarray binding, fluorescence 635 nm; higher = more signal
Just the number.

Some compounds with known composite z-score results, for comparison:
- CCOC(=O)[C@H](CC(C)C)NC(=O)CCC1CC(OC(=O)NCCc2ccc(F)cc2)CC2(CCCC(COC(=O)NCC3CCCCC3)O2)O1 (stereo not given in full): 0.723
- CCOC(=O)NN=C1C[C@@H](O)[C@@H](O)[C@@H]2[C@@H]3C(=O)N(c4ccc(F)cc4F)C(=O)[C@@H]3CC[C@@H]12: 0.687
- O=c1n(-c2ccccc2)c(=O)n2n1CC[C@@H]1C(=NOCc3ccccc3)[C@H]3O[C@H]3[C@@H](O)[C@@H]12: 0.0398
- CO[C@H]1COC(=O)CC=C[C@H](C)[C@@H](OC)COC(=O)[C@@H](C)NC(=O)CC=C[C@@H]1C: -2.13
- CCOC(=O)[C@H](CC(C)C)NC(=O)CCC1CC(OC(=O)NCc2ccc3c(c2)OCO3)CC2(CCCC(COC(=O)NCC3CCCCC3)O2)O1 (stereo not given in full): 1.39

Hi! What's the reported composite z-score for `COC(=O)CC=C[C@@H](C)[C@@H](C=NOC[C@H]1O[C@H](c2ccccc2)C=C[C@@H]1Oc1ccc(OC)cc1)NS(=O)(=O)c1ccc(C)cc1` on Human papillomavirus type 1a protein E7 (residues 44-93)?
-1.1

What do you have for `CC[C@@H](c1ccccc1)n1c(=O)n2n(c1=O)[C@H]1[C@H](O)[C@@H]3O[C@@H]3C(=O)[C@H]1CC2` ?
0.225

What do you have for `CC(C)=NO[C@H](C)c1cn([C@H](CO)Cc2ccccc2)nn1` ?
0.216

What do you have for `COc1ccc(COC(=O)NN=C2C[C@@H](O)[C@@H](O)[C@@H]3[C@@H]4C(=O)N(C5CCCCC5)C(=O)[C@@H]4CC[C@H]23)cc1` ?
-0.605

What do you have for `C#CCCCON=C1C[C@@H](O)[C@@H](O)[C@@H]2[C@@H]3C(=O)N(c4cccc(Oc5ccccc5)c4)C(=O)[C@@H]3CC[C@H]12` ?
-0.578
